Target: T1, hPRLR.mmh (soluble monomeric human PRLR) (human)
T1 construct: called soluble monomeric PRLR protein
T1 chain: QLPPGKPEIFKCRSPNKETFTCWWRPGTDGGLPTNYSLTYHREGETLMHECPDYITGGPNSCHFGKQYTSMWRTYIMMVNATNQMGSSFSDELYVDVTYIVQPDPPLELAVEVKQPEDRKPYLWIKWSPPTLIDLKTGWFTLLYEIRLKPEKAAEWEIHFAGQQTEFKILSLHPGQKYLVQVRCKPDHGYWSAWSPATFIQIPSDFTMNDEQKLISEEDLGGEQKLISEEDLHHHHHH
Assay: SPR Biacore, 25 C, mAb capture
Readings of T½ for the listed binders
Measured endpoint: T½ (min)

# Binder, Measured endpoint, Endpoint result
data = [
    ("H1H6785P (antibody, human IgG1, V domains shown, Human IgG1 Fc (H1H)) VH: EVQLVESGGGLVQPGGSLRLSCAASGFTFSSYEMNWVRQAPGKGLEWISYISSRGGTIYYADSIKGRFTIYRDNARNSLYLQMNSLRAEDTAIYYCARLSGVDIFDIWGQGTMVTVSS VL: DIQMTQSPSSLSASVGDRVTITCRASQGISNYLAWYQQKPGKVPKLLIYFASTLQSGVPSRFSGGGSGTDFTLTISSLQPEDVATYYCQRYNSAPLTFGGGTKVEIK", "T½", 68),
    ("H1H6953N (antibody, human IgG1, V domains shown, Tested with human IgG1 Fc (H1H); also called H1M6953N) VH: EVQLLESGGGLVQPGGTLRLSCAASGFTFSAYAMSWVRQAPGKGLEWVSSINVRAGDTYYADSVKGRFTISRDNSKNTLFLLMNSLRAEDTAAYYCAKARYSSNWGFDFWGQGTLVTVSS VL: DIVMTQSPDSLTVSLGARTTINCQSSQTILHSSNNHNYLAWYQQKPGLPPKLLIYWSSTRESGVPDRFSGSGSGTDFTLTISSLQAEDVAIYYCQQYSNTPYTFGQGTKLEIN", "T½", 54.5),
    ("H1H6793P (antibody, human IgG1, V domains shown, Human IgG1 Fc (H1H)) VH: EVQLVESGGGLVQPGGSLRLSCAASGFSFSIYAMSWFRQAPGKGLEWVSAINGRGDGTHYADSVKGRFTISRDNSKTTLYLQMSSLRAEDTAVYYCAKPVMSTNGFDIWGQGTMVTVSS VL: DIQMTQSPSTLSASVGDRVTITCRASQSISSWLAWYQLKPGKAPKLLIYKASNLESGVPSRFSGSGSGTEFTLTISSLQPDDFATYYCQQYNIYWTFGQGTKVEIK", "T½", 35),
]
